# reported % engagement STRBP_C142; entries follow
- ASSAY SYSTEM: STRBP_C142 (Homo sapiens)
- Construct: endogenous in cells; host or cells: 22Rv1
- Sequence (Q96SI9 whole entry): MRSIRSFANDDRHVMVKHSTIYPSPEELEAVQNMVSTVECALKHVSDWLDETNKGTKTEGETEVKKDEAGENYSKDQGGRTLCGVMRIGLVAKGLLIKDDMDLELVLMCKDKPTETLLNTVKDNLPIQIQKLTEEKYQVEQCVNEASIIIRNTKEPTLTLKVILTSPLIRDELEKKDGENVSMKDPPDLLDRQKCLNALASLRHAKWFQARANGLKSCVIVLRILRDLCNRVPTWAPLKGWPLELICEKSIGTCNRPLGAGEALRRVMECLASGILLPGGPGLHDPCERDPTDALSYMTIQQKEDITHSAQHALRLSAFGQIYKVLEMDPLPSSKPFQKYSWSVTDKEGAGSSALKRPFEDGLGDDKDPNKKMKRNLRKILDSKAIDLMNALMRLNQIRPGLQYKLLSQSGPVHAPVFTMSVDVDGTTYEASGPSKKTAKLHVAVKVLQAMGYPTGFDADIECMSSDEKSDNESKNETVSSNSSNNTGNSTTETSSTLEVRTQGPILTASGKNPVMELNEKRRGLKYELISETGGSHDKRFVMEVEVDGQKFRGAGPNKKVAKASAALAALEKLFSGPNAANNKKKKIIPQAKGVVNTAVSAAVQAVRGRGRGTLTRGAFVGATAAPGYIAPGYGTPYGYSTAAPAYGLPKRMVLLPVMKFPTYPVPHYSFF
- ASSAY SUMMARY: IA-DTB cysteine engagement
- Format: binding
- MEASUREMENT CONDITIONS: 22Rv1 cells, 20 μM probe, 1 h, relative to DMSO
Number in %, nothing else.

Worked examples follow.
Q: // returns reported % engagement STRBP_C142 for input C=CC(=O)N1C[C@H](c2ccc(Br)cc2)[C@@H]1C(=O)Nc1cccc2cccnc12 [MY-1B]
Result: 8.5

Q: And then C=CC(=O)N1C[C@H](c2ccc(Br)cc2)[C@H]1C(=O)Nc1cccc2cccnc12 [MY-3A] , what is it?
Result: 16.25

Q: And then C=CC(=O)N1C[C@H](c2ccc(Br)cc2)[C@H]1C(=O)Nc1cccc2cccnc12 [MY-3B] , what is it?
Result: 7.75

New cases:
Q: // returns reported % engagement STRBP_C142 for input C=CC(=O)N1C[C@@H](c2ccc(Br)cc2)[C@H]1C(=O)Nc1cccc2cccnc12 [MY-1A]
Result: 88.25
